Reference source: PubChem BioAssay (EPA / NIEHS)

Read-out: Tumor necrosis factor (Homo sapiens) (UniProt P01375)
Sequence (P01375 whole entry, looked up): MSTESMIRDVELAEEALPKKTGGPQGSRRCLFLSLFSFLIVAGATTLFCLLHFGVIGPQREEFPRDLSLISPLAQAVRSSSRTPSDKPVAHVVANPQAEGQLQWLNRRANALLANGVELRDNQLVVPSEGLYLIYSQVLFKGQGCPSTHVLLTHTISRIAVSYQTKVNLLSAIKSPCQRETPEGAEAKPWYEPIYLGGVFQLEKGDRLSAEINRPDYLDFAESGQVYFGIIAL
MEASUREMENT_NOTES: BSK_LPS_TNFa: BioMAP Diversity Plus: LPS Assay for Tumour Necrosis Factor alpha (TNFa) Biomarker Activity (AID 2283085)
COND: primary human HUVEC with PBMC; actives raise or lower the signal
Calls of active or inactive are those of the source. How the source made its calls: active means hit-call score of the fitted dose curve at least 0.9, where 1 is the maximum; inactive means score below 0.9.
// allowed return values: yes for active, no for inactive

Would you please look over these solved cases?
- CCCCC(CC)COC(=O)CC(C(=O)OCC(CC)CCCC)S(=O)(=O)O (stereo not drawn): no
- COc1cc(C=O)ccc1O: no
- COc1ccc(S(=O)(=O)N2C(=O)[C@@](c3ccccc3OC)(N3C[C@H](O)C[C@H]3C(=O)N(C)C)c3cc(Cl)ccc32)c(OC)c1: yes
- Cc1ccccc1Cl: no
- COc1ccc2c(c1)c(CC(=O)O)c(C)n2C(=O)c1ccc(Cl)cc1: no
- CCCCCCC(=O)OCC: no
- CN1CCCC1=O: no

For the next question, use this compound.
Test call, this compound: COc1ccc(C)cc1N no
